// reported GI50 per item
- Tested on: ACHN renal
- assay.method.text: NCI tumour cell line growth inhibition, 48 h

As a guide, the following entries are already answered.
COc1ncnc2c1ncn2C/C(Br)=C(\Br)CCl : 2.14 µM
CC(=O)OC1C(O)COC(Oc2c(C)c3c4c(c2O)[C@@H](C)CC[C@@H]4[C@@H](C)C[C@H]3C=C(C)C)C1O (stereo partly drawn) : 18.7 µM
CNC1=C(Br)C(=O)C2=C(C1=O)C1C3=C(C(=O)C=CC3=O)C2c2ccccc21 (stereo not drawn) : 2.1 µM
CCCCCCCCOC(=O)c1cc(O)c(O)c(O)c1 : 1.6 µM
COc1ccc(OC)c(-c2cn3nc(-c4c[nH]c5ccc(Br)cc45)sc3n2)c1 : 2.02 µM

Input: Tell me GI50 reported for CC(=O)c1ccc(NCn2nc(-c3ccccc3O)oc2=S)cc1
Output: 29.6 µM

Input: Tell me GI50 reported for Cn1c(-c2c(N)n(Cc3ccc(Cl)cc3)c3nc(C#N)c(C#N)nc23)nc2ccccc21
Output: 1.5 µM

Input: Tell me GI50 reported for c1ccc(CN2CCC3(CC2)ONC2=NCCN23)cc1
Output: 49.7 µM

Input: Tell me GI50 reported for COc1ccc(S(=O)(=O)N2CCCCC2)cc1NC(=O)c1[nH]c(C)c2c1CCCCC2=O
Output: 2.34 µM

Input: Tell me GI50 reported for CC(C)(C)c1ccc(NC(=O)c2cc(=O)c3ccccc3[nH]2)c(C(C)(C)C)c1O
Output: 4.13 µM

Input: Tell me GI50 reported for CC(=O)O[C@H]1CC[C@]2(C)[C@H]3C(=O)C=C4[C@@H]5C[C@](C)(C(=O)N6CCCNCC6)CC[C@]5(C)CC[C@@]4(C)[C@]3(C)CC[C@H]2C1(C)C
Output: 1.66 µM

Input: Tell me GI50 reported for N#C/C(=C/c1cccs1)c1cccs1
Output: > 100 µM

Input: Tell me GI50 reported for CO/N=C(\COc1ccc2c(=O)cc(-c3ccccc3)oc2c1)c1ccc(OC)cc1
Output: > 100 µM

----------
- Tested on: HCC-2998 colon
- assay.method.text: NCI tumour cell line growth inhibition, 48 h
// reported TGI per item

As a guide, the following entries are already answered.
CC(C)C(OC(=O)c1cc(NC(=S)c2ccccc2)ccc1Cl)C(C)C : > 53.1 µM
COc1ccc2c3c([nH]c2c1[N+](=O)[O-])C(C)N(C(=O)/C=C/c1ccccc1)CC3 (stereo unspecified) : > 100 µM
CN1NC(c2ccccc2)=C(C#N)C(=O)CC1c1ccccc1Cl (stereo unspecified) : > 100 µM
C/C(=C\c1ccccc1)C(O)S(=O)(=O)O (stereo unspecified) : > 100 µM
COc1cc2c(cc1OC)[C@]1(O)C(=O)c3ccc4c(c3O[C@@H]1CO2)C[C@H](C(C)(C)O)O4 : > 100 µM
CC[O+]=c1cccc2ssnc1-2 : > 100 µM
CSc1ccc2c(cc1=O)C(NC(=O)c1cc(O)c(OC(=O)O)c(O)c1)CCc1cc(O)c(O)c(O)c1-2 (stereo unspecified) : > 90 µM
CN[C@@H]1[C@H](O)[C@H](NC)[C@H]2O[C@@]3(O)C(=O)C[C@@H](C)O[C@H]3O[C@@H]2[C@H]1O : > 100 µM
CC1(Br)C(=O)NC(=O)N([C@H]2C[C@H](O)[C@@H](CO)O2)C1N=[N+]=[N-] (stereo partly specified) : > 100 µM
CO/N=C(\COc1ccc2c(=O)cc(-c3ccccc3)oc2c1)c1ccc(OC)cc1 : > 100 µM

We next turn to a different compound, shown below.
Input: Tell me TGI reported for O=C(O)c1cc2c3c(c1)[C@H]1C=CC[C@H]1CN3CC1CC=CC21 (stereo partly specified)
Output: > 100 µM

Source listed as PubChem BioAssay (NCI).
